# Tested on: HCT-116 colon
# ASSAY_PROCEDURE: NCI-60 one-dose screen, 48 h
# EXPERIMENTAL_PARAMETERS: 10 µM unless noted
The panel holds about 83,000 compounds, 20% with a hit somewhere; the sample as a whole holds those more often. Calls of active or inactive are those of the source. Rule for the calls: active = growth percent below 10; inactive = the rest.
// classify into yes for active, no for inactive

COMPOUND | SUBJECT_OF_TEST | CLASS_LABEL
CO/N=C1\CC[C@]2(C)[C@H]3CC[C@]4(C)C(=O)CC[C@H]4[C@@H]3C[C@@H]3SC(N)=N[C@@]32C1 | HCT-116 colon | no

GET /call?item= CC[C@H](CC[C@@H](C)[C@H]1CC[C@H]2[C@@H]3CC[C@H]4C[C@]5(CC[C@]4(C)[C@H]3CC[C@]12C)OO[C@](C)(C(F)(F)F)O5)C(C)C returns the recorded outcome of this test.
no

GET /call?item= COc1ccc2c(c1)C1(C)CCN(C)CC(C1)C2O (centres undefined) returns the recorded outcome of this test.
no

GET /call?item= C[C@]12CC[C@H]3[C@@H](CC=C4c5nc(N)sc5CC[C@@]43C)[C@@H]1CC[C@@H]2O returns the recorded outcome of this test.
no

GET /call?item= C[C@@]12CCCc3coc(c31)C(=O)c1cc3c(cc12)C(=O)C1=C(NCCS1(=O)=O)C3=O returns the recorded outcome of this test.
yes

GET /call?item= O=S(=O)(F)c1cccc(Cl)c1C[P+](c1ccccc1)(c1ccccc1)c1ccccc1 returns the recorded outcome of this test.
no

GET /call?item= Cc1nnc([S-])o1.[Au+].c1ccc([PH+](c2ccccc2)c2ccccc2)cc1 returns the recorded outcome of this test.
no

GET /call?item= Cn1cc(-c2csc(-c3cn(CCCCN4CCOCC4)c4ccc(F)cc34)n2)c2cccnc21 returns the recorded outcome of this test.
no

GET /call?item= CCCC(C)SP(=S)(SC(C)CCC)SC(C)CCC (centres undefined) returns the recorded outcome of this test.
no

* * *

Listed here: items and their measured growth.
# System: MDA-MB-435 melanoma
# ASSAY_PROCEDURE: NCI-60 one-dose screen, 48 h (100 = growth as untreated, 0 = no growth, -100 = all killed)
# EXPERIMENTAL_PARAMETERS: 10 µM unless noted
Compounds without any hit were thinned out: in the full panel of roughly 83,000, 20% have a hit.
Supply the numeric figure in %, leaving out any unit text.

COMPOUND | SUBJECT_OF_TEST | DATA_VALUE
C/C(=C(\c1ccc(OCCN2CCOCC2)cc1)c1ccc(OC(=O)Cc2ccccc2)cc1)c1ccc(Cl)cc1 | MDA-MB-435 melanoma | 91.4
C[C@@H]1C/C=C\C(=O)O[C@H](/C=C/C#C/C=C/C(C)(C)[C@@H](O)c2cccc(O)c2Br)[C@@H](C)/C=C/[C@H](C)C[C@H](OC(N)=O)C1 | MDA-MB-435 melanoma | 19.2
O=C1NC(=O)C(=C/C=C/c2ccccc2)C(=O)N1 | MDA-MB-435 melanoma | 3.9

Note to self: growth recorded for NC(N)=NC(N)=Nc1ccc(Cl)cc1 was 101

Note to self: growth recorded for CN1[C@@H](CC(=O)c2ccccc2)CCC[C@H]1CC(=O)c1ccccc1 was 97.5

Note to self: growth recorded for ClCc1ccc(Cl)c(Cl)c1 was 106

Note to self: growth recorded for O=S(=O)(F)c1cccc(Cl)c1C[P+](c1ccccc1)(c1ccccc1)c1ccccc1 was 84.4

Note to self: growth recorded for CCOC(=O)C1C(C=C(C)C)C1(C)C (stereo not drawn) was 102

* * *

# Test system: SR leukemia
# ASSAY_PROCEDURE: NCI-60 one-dose screen, 48 h (100 = growth as untreated, 0 = no growth, -100 = all killed)
# EXPERIMENTAL_PARAMETERS: 10 µM unless noted
Compounds without any hit were thinned out: in the full panel of roughly 83,000, 20% have a hit.
Give YES when the value for growth is at least 60%. Give NO when it is less.

Illustrative cases are given below, each with its answer.
COMPOUND | CLASS_LABEL
N#CCCc1ccccc1 | YES
CCCCCCCCCCCCCCCCCC1OCC(COC(=O)O[C@@H](C(=O)O[C@H]2C[C@@]3(O)[C@@H](OC(=O)c4ccccc4)[C@@H]4[C@]5(OC(C)=O)CO[C@@H]5C[C@H](O)[C@@]4(C)C(=O)[C@H](OC(C)=O)C(=C2C)C3(C)C)[C@@H](NC(=O)c2ccccc2)c2ccccc2)O1 (stereo partly specified) | NO
CN1CCN(c2ccc(Cl)cc2)CC1 | NO
C=CC[PH+](c1ccccc1)c1ccccc1.C=CC[PH+](c1ccccc1)c1ccccc1.[Pt+2].[S-]c1nc2ccccc2[nH]1.[S-]c1nc2ccccc2[nH]1 | NO
CC[C@H](C)[C@H](NC(=O)[C@H]1CCCCN1C)C(=O)N(C)[C@H](CCc1nc(C(=O)N[C@@H](Cc2ccccc2)C[C@H](C)C(=O)O)cs1)C(C)C | NO

Moving on to another compound below.
Hi, just wondering whether O=NN1CCCCC1 shows growth of 60% or higher.
YES

* * *

# Tested on: MOLT-4 leukemia
# ASSAY_PROCEDURE: NCI-60 one-dose screen, 48 h
# EXPERIMENTAL_PARAMETERS: 10 µM unless noted
This is part of a sample that, as a whole, favours compounds with a hit. Of some 83,000 tested, about 20% had one in any assay. Activity calls are given as the source filed them. The calls were made as follows: active = growth percent below 10; inactive = the rest.
// classify into active, inactive

MOLECULE | CLASS_LABEL
COc1ccc(N)cc1N | inactive
Cc1ccc(N2CCN(CCC#N)CC2)cc1 | inactive
Nc1nc(=S)nc(N)[nH]1 | inactive

Moving on to another molecule below.
GET /call?item= O=[N+]([O-])c1ccc(P(=O)(O)O)cc1 returns the recorded outcome of this test.
inactive

* * *

Listed here: items and their measured growth.
# System: HL-60(TB) leukemia
# ASSAY_PROCEDURE: NCI-60 one-dose screen, 48 h (100 = growth as untreated, 0 = no growth, -100 = all killed)
# EXPERIMENTAL_PARAMETERS: 10 µM unless noted
Compounds without any hit were thinned out: in the full panel of roughly 83,000, 20% have a hit.
Supply the numeric figure in %, leaving out any unit text.

The following compounds have reported results that may help.
COMPOUND | growth, %
CCCCCCCCCCCCCCCCCC1OCC(COC(=O)O[C@@H](C(=O)O[C@H]2C[C@@]3(O)[C@@H](OC(=O)c4ccccc4)[C@@H]4[C@]5(OC(C)=O)CO[C@@H]5C[C@H](O)[C@@]4(C)C(=O)[C@H](OC(C)=O)C(=C2C)C3(C)C)[C@@H](NC(=O)c2ccccc2)c2ccccc2)O1 (some centres undefined) | 4.84
S=P(SP(=S)(c1ccccc1)c1ccccc1)(c1ccccc1)c1ccccc1 | 48.5

Note to self: growth recorded for CSc1cc(/C=C(\C)[C@@H]2C[C@@H]3O[C@]3(C)CCC[C@H](C)[C@H](O)[C@@H](C)C(=O)C(C)(C)[C@@H](O)CC(=O)O2)n(CCNC(=O)OC(C)(C)C)n1 was 8.76

Note to self: growth recorded for C[C@]12CCc3sc(Nc4ccc(O)cc4)nc3C1=CC[C@@H]1[C@@H]2CC[C@]2(C)C(=O)CC[C@@H]12 was 8.98

Note to self: growth recorded for CC[C@H](C)[C@H](NC(=O)[C@H]1CCCCN1C)C(=O)N(C)[C@H](CCc1nc(C(=O)N[C@@H](Cc2ccccc2)C[C@H](C)C(=O)O)cs1)C(C)C was -34.5

Note to self: growth recorded for ClCc1ccc(Cl)c(Cl)c1 was 105

Note to self: growth recorded for N#CCC(=O)c1ccccc1 was 98.4

Note to self: growth recorded for CN1C2CCC1[C@@H](COC(=O)c1ccccc1)[C@@H](O)C2 (some centres undefined) was 81.7

Note to self: growth recorded for COc1ccc2c(c1)c(-c1nc(-c3c[nH]c4ncccc34)cs1)cn2CCCCN1CCOCC1 was 7.66

* * *

# System: UACC-62 melanoma
# ASSAY_PROCEDURE: NCI-60 one-dose screen, 48 h
# EXPERIMENTAL_PARAMETERS: 10 µM unless noted
About 83,000 compounds went through this panel and 20% of them were active in at least one assay; those are over-represented in the sample as a whole. Activity calls are given as the source filed them. Rule for the calls: active = growth percent below 10; inactive = the rest.
// classify into active, inactive

GET /call?item= CO[C@H]1[C@H](O[C@@H]2C[C@@H]3C/C=C/C(=O)O[C@@H](CO)C[C@H](O)[C@@H]4C[C@H](C)[C@H](C/C=C\C=C\[C@H](C)C[C@H](C2)O3)O4)O[C@@H](C)[C@H](O)[C@H]1O returns the recorded outcome of this test.
inactive

GET /call?item= O=CC1(c2ccccc2)CCN(Cc2ccccc2)CC1 returns the recorded outcome of this test.
inactive

GET /call?item= N#Cc1ccc(Cl)cc1 returns the recorded outcome of this test.
inactive

GET /call?item= Cc1ccc(C(=O)O[C@H](C(=O)O)[C@H](OC(=O)c2ccc(C)cc2)C(=O)O)cc1 returns the recorded outcome of this test.
inactive

GET /call?item= COc1c(O)cc2c(c1OC)-c1ccc(SC)c(=O)cc1C(NC(C)=O)CC2 (stereo not given) returns the recorded outcome of this test.
inactive

GET /call?item= CO[C@@H]([CH2][Hg][O]C(=O)c1ccccc1)[C@@H]([CH2][Hg][O]C(=O)c1ccccc1)OC returns the recorded outcome of this test.
inactive

GET /call?item= COc1cc(C2C3=C(CCCC3=O)N(CCO)c3cc4c(cc32)CCC4)cc(OC)c1OC (stereo not given) returns the recorded outcome of this test.
inactive

GET /call?item= C#COc1cccc(Nc2ncnc3cc(NC(=O)CF)ccc23)c1 returns the recorded outcome of this test.
inactive

GET /call?item= C[C@H](O)CCC(=O)c1ccoc1 returns the recorded outcome of this test.
inactive

GET /call?item= C[C@]12CC[C@H]3[C@@H](C[C@@H]4SC(Nc5cccc(F)c5)=N[C@@]45CC(=O)CC[C@]35C)[C@@H]1CCC2=O returns the recorded outcome of this test.
inactive

GET /call?item= C/C(=N/OC(=O)N(C)C)c1ccc(Cl)c(Cl)c1 returns the recorded outcome of this test.
inactive
